Ref: patent US20240425456A1

- tested on: Tyk2 (Homo sapiens)
- Construct: endogenous in cells; host or cells: Jurkat cells
- Sequence (P29597 whole entry): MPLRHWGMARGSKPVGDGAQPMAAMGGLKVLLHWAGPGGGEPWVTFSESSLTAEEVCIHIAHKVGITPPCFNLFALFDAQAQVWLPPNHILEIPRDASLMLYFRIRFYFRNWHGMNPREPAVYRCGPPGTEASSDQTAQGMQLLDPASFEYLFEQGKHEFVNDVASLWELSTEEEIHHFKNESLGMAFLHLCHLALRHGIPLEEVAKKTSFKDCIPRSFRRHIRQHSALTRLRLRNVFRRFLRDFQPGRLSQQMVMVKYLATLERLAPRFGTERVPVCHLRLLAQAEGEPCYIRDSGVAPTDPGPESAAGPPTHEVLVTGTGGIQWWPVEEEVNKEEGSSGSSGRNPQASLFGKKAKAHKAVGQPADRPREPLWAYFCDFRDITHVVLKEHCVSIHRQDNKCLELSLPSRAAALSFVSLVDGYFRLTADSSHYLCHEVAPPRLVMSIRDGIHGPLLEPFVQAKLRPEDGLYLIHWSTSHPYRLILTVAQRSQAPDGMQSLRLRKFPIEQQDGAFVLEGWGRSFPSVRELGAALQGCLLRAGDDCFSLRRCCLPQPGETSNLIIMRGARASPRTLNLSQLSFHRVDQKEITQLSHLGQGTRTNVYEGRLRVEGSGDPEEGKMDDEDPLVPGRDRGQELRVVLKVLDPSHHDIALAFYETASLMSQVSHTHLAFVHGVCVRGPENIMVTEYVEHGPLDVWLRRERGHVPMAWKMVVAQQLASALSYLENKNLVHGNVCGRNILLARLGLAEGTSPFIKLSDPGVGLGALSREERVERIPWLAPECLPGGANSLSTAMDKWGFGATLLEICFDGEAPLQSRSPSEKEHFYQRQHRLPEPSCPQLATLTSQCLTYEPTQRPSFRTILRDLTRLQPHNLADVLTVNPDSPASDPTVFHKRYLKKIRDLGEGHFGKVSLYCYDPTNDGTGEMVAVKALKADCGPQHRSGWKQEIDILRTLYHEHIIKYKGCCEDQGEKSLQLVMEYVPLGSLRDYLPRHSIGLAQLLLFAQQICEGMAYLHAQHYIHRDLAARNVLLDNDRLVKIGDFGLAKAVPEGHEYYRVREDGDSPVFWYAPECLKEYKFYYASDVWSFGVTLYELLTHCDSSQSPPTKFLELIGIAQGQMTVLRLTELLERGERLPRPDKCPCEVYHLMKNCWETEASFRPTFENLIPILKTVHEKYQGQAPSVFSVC
- assay method text: Degradation-inducing effect on JAK in Jurkat cells (chemiluminescent Western blotting), Tyk2
- Assay type: cell-based
- setup conditions: 1 μmol/L, 6 hours, corrected by GAPDH, DMSO as 100%
Simple rule here: JAK protein ratio of Jurkat cells after treatment of each test compound: Tyk2 less than 50% is Met, otherwise Not met.

(Q) Identify whether the compound CNC(=O)c1cnc(Nc2ccc(C(=O)NCCCCCCCCC(=O)N[C@H](C(=O)N3C[C@H](O)C[C@H]3C(=O)NCc3ccc(-c4scnc4C)cc3)C(C)(C)C)cn2)cc1Nc1cccc(C(=O)NC)c1OC records JAK protein ratio of Jurkat cells after treatment of each test compound: Tyk2 below 50%.
(A) Met

(Q) Identify whether the compound CNC(=O)c1cnc(Nc2ccc(C(=O)NCCCCCCCCCC(=O)N[C@H](C(=O)N3C[C@H](O)C[C@H]3C(=O)NCc3ccc(-c4scnc4C)cc3)C(C)(C)C)cn2)cc1Nc1cccc(C(=O)NCCO)c1OC records JAK protein ratio of Jurkat cells after treatment of each test compound: Tyk2 below 50%.
(A) Not met

(Q) Identify whether the compound CNC(=O)c1cnc(Nc2ccc(F)cn2)cc1Nc1cccc(C(=O)NCCCCCCCCCC(=O)N[C@H](C(=O)N2C[C@H](O)C[C@H]2C(=O)NCc2ccc(-c3scnc3C)cc2)C(C)(C)C)c1OC [Comparative Example 1, reference compound] records JAK protein ratio of Jurkat cells after treatment of each test compound: Tyk2 below 50%.
(A) Not met

(Q) Identify whether the compound CNC(=O)c1cnc(Nc2ccc(C(=O)NCCCCCCCCCC(=O)N[C@H](C(=O)N3C[C@H](O)C[C@H]3C(=O)NCc3ccc(-c4scnc4C)cc3)C(C)(C)C)cn2)cc1Nc1cccc(-c2ncn(C)n2)c1OC records JAK protein ratio of Jurkat cells after treatment of each test compound: Tyk2 below 50%.
(A) Met

(Q) Identify whether the compound CNC(=O)c1cnc(Nc2ccc(F)cn2)cc1Nc1cccc(C(=O)OCCCCCCCCCC(=O)N[C@H](C(=O)N2C[C@H](O)C[C@H]2C(=O)NCc2ccc(-c3scnc3C)cc2)C(C)(C)C)c1OC [Comparative Example 2, reference compound] records JAK protein ratio of Jurkat cells after treatment of each test compound: Tyk2 below 50%.
(A) Not met

(Q) Identify whether the compound CNC(=O)c1cnc(Nc2ccc(C(=O)NCCCCCCCCCC(=O)N[C@H](C(=O)N3C[C@H](O)C[C@H]3C(=O)NCc3ccc(-c4scnc4C)cc3)C(C)(C)C)cn2)cc1Nc1cccc(C(=O)NC)c1OC records JAK protein ratio of Jurkat cells after treatment of each test compound: Tyk2 below 50%.
(A) Met

(Q) Identify whether the compound CNC(=O)c1cnc(Nc2ccc(C(=O)NCCCCCCCCCCCC(=O)N[C@H](C(=O)N3C[C@H](O)C[C@H]3C(=O)NCc3ccc(-c4scnc4C)cc3)C(C)(C)C)cn2)cc1Nc1cccc(C(=O)NC)c1OC records JAK protein ratio of Jurkat cells after treatment of each test compound: Tyk2 below 50%.
(A) Met

(Q) Identify whether the compound CNC(=O)c1cccc(Nc2cc(Nc3ccc(C(=O)NCCCCCCCCCC(=O)N[C@H](C(=O)N4C[C@H](O)C[C@H]4C(=O)NCc4ccc(-c5scnc5C)cc4)C(C)(C)C)cn3)ncc2C(N)=O)c1OC records JAK protein ratio of Jurkat cells after treatment of each test compound: Tyk2 below 50%.
(A) Met

(Q) Identify whether the compound CNC(=O)c1cnc(Nc2ccc(C(=O)NCCCC(=O)N[C@H](C(=O)N3C[C@H](O)C[C@H]3C(=O)NCc3ccc(-c4scnc4C)cc3)C(C)(C)C)cn2)cc1Nc1cccc(C(=O)NC)c1OC records JAK protein ratio of Jurkat cells after treatment of each test compound: Tyk2 below 50%.
(A) Not met

(Q) Identify whether the compound CNC(=O)c1cnc(Nc2ccc(C(=O)NCCCCCCCC(=O)N[C@H](C(=O)N3C[C@H](O)C[C@H]3C(=O)NCc3ccc(-c4scnc4C)cc3)C(C)(C)C)cn2)cc1Nc1cccc(C(=O)NC)c1OC records JAK protein ratio of Jurkat cells after treatment of each test compound: Tyk2 below 50%.
(A) Not met

(Q) Identify whether the compound CNC(=O)c1cnc(Nc2ccc(C(=O)NCCCCCCCCCC(=O)N[C@H](C(=O)N3C[C@@H](O)C[C@H]3C(=O)NCc3ccc(-c4scnc4C)cc3)C(C)(C)C)cn2)cc1Nc1cccc(C(=O)NC)c1OC records JAK protein ratio of Jurkat cells after treatment of each test compound: Tyk2 below 50%.
(A) Not met

(Q) Identify whether the compound CNC(=O)c1cnc(Nc2ccc(C(=O)NCCCCCCCCCCC(=O)N[C@H](C(=O)N3C[C@H](O)C[C@H]3C(=O)NCc3ccc(-c4scnc4C)cc3)C(C)(C)C)cn2)cc1Nc1cccc(C(=O)NC)c1OC records JAK protein ratio of Jurkat cells after treatment of each test compound: Tyk2 below 50%.
(A) Met
